Data origin: patent US5049673A

EXPERIMENTAL_PROTOCOL: Absorbance and fluorescence properties in the presence and absence of Ca2+
Assay type: physicochemical
CONDITION: zero Ca
Please go through the items and note down their Fluorescence quantum efficiency, zero Ca.

Measured Fluorescence quantum efficiency, zero Ca, `Cc1ccc(N(CC(=O)O)CC(=O)O)c(OCCOc2cc(-c3c4ccc(=[N+](C)C)cc-4oc4cc(N(C)C)ccc34)ccc2N(CC(=O)O)CC(=O)O)c1` : .03

Measured Fluorescence quantum efficiency, zero Ca, `Cc1ccc(N(CC(=O)O)CC(=O)O)c(OCCOc2cc(-c3c4ccc(=O)cc-4oc4cc(O)ccc34)c(O)cc2N(CC(=O)O)CC(=O)O)c1` : .0042

Measured Fluorescence quantum efficiency, zero Ca, `Cc1ccc(N(CC(=O)O)CC(=O)O)c(OCCOc2cc(-c3c4ccc(=O)cc-4oc4cc(O)ccc34)ccc2N(CC(=O)O)CC(=O)O)c1` : .004

Measured Fluorescence quantum efficiency, zero Ca, `Cc1ccc(N(CC(=O)O)CC(=O)O)c(OCCOc2cc(-c3c4cc(Cl)c(=O)cc-4oc4cc(O)c(Cl)cc34)ccc2N(CC(=O)O)CC(=O)O)c1` : .0051
